Source of measurements: ChEMBL document CHEMBL1150387

Target: Calcium/calmodulin-dependent protein kinase type IV (Homo sapiens) (UniProt Q16566)
Sequence (Q16566 whole entry): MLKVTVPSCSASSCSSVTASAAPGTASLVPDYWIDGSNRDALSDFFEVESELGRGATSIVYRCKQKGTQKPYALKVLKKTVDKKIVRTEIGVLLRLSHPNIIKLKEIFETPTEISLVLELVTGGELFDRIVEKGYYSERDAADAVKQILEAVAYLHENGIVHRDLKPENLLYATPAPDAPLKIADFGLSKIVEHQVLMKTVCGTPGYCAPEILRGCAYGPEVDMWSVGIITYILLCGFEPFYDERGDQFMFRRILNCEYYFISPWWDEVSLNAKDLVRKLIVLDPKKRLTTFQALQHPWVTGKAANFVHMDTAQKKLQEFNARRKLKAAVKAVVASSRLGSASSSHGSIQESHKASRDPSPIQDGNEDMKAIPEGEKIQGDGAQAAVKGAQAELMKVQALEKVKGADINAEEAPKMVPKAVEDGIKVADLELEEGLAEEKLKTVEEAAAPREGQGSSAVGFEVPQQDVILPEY
Assay: Inhibition of CaMK4 at 10 uM by HTRF assay relative to control
Reported metric: inhibition (%)

>>> print(df.to_string())
                              line_notation  unit  measured_result
0  Cc1cccc(Oc2ccnc(N3CCN(C(=O)c4c(C)noc4C)CC3)n2)c1     %                0
1  CC(=O)CCCCC(=O)N1CCN(c2nccc(Oc3cccc(C)c3)n2)CC1     %                0
2  Clc1ccc2sc(CN3CCN(c4ncnc5c4CN(Cc4ccccc4)CC5)CC3)cc2c1     %                0

---

Target: High affinity nerve growth factor receptor (Homo sapiens)
Experiment: Inhibition of TrkA at 10 uM by HTRF assay relative to control
Reported metric: inhibition (%)

Please review the following examples before continuing.
                                   compound  unit  measured_result
0  CC(=O)CCCCC(=O)N1CCN(c2nccc(Oc3cccc(C)c3)n2)CC1     %                0
1  COc1cccc(Nc2cc(Nc3cccc(C(=O)NCCCn4ccnc4)c3)nc(N)n2)c1     %                7
2  CN(CCc1ccccn1)C(=O)[C@@H]1CCCN1c1nccc(Nc2ccccc2)n1     %                8
3  COC(=O)C(CO)NC(=O)[C@@H]1CCCN1c1nccc(Oc2cccc(C)c2)n1 (some centres undefined)     %                4
4  CN(C)CC(C)(C)CNC(=O)c1cccc(Nc2nccc(Nc3ccc4ncsc4c3)n2)c1     %               75

a: O=C(NC[C@@H]1CCCO1)c1cccc(Nc2nccc(Nc3ccc4ncsc4c3)n2)c1
b: COc1cccc(Nc2cc(N3CCC[C@H]3C(=O)NCCN3CCCCC3)nc(N)n2)c1
Quick one: lower inhibition, a or b ? Respond using the label that marks the chosen record.
b
(b: 8%, a: 34%)

P: Cc1cccc(Nc2nccc3c2CN(C(=O)c2cc(C)n(C)c2C)CC3)c1
Q: O=C(NCc1cccnc1)c1cccc(-c2ccc(Nc3ccc4ncsc4c3)nn2)c1
R: CN(C)c1ccc(C(=O)N2CCN(c3ncnc4c3CN(Cc3ccccc3)CC4)CC2)c2ccccc12
S: Cc1cccc(N(C)c2cc(Nc3cccc(C(=O)N(C)CCc4ccccn4)c3)ncn2)c1
T: CN(CCc1ccccn1)C(=O)c1cccc(Nc2nccc(Nc3ccc4ncsc4c3)n2)c1
Hey, quick one: sort these by inhibition, low to high? Give me the labels in the order the question wants.
Q, P, R, S, T
(Q: 0%, P: 4%, R: 7%, S: 10%, T: 56%)

A: CN(C)CC(C)(C)CNC(=O)C1CCN(c2cc(N3CCOCC3)nc(N)n2)CC1
B: Clc1ccc2sc(CN3CCN(c4ncnc5c4CN(Cc4ccccc4)CC5)CC3)cc2c1
Lab note: check whether A or B has the lower measured inhibition. Pick one and reply with its label.
A
(A: 7%, B: 13%)

---

Molecular target: Tyrosine-protein kinase Lyn (Homo sapiens)
Assay: Inhibition of Lyn at 10 uM by HTRF assay relative to control
Reported metric: inhibition (%)

Look over these answered cases.
>>> df
                                   compound  measured_result
0  O=C(NC[C@@H]1CCCO1)c1cccc(Nc2nccc(Nc3ccc4ncsc4c3)n2)c1               90
1  Cc1cccc(Oc2ccnc(N3CCC[C@H]3C(=O)NCc3cccnc3)n2)c1                6

a: Cc1cccc(N(C)c2cc(Nc3cccc(C(=O)N(C)CCc4ccccn4)c3)ncn2)c1
b: Cc1cccc(Oc2ccnc(N3CCC[C@H]3C(=O)NCCCn3ccnc3)n2)c1
c: Cc1cccc(Nc2nccc(Nc3cccc(C(=O)NCc4ccc(N(C)C)cc4)c3)n2)c1
d: COC(=O)C(CO)NC(=O)[C@@H]1CCCN1c1nccc(Oc2cccc(C)c2)n1 (stereo not given in full)
e: Cc1cccc(N(C)c2cc(Nc3cccc(C(=O)N(CC(C)C)CC(C)C)c3)ncn2)c1
Rank the 5 compounds: largest inhibition first, smallest last. Show the ranking through the labels, in the order asked for.
a, c, d, e, b

I: COc1ccc(NC(=O)Cc2ccc(Nc3cc(N(C)c4cccc(C)c4)ncn3)cc2)cn1
II: CN(C)CC(C)(C)CNC(=O)C1CCN(c2cc(N3CCOCC3)nc(N)n2)CC1
Endpoint returns the identifier whose inhibition is numerically larger, either I or II . Write the label of whichever entry you select.
I

---

Target: MAP kinase-activated protein kinase 2 (Homo sapiens) (UniProt P49137)
Sequence (P49137 whole entry, looked up): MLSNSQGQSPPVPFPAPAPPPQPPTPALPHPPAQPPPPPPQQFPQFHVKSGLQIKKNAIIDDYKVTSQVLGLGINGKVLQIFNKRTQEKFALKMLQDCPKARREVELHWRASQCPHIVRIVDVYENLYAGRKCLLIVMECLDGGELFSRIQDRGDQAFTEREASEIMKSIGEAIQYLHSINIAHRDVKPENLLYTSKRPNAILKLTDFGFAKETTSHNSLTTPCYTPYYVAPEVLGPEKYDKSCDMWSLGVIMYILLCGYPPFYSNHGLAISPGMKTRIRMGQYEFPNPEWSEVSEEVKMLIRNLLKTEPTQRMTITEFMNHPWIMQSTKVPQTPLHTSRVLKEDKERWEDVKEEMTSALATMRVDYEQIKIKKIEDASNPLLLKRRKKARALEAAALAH
Experiment: Inhibition of MAPKAPK2 at 10 uM by HTRF assay relative to control
Reported metric: inhibition (%)

Here are 3 compounds together with their reported answers.
>>> print(df.to_string())
                                   compound  unit  measured_result
0  Cc1cccc(Nc2ncnc3c2CN(C(=O)c2ccc(N(C)C)c4ccccc24)CC3)c1     %                0
1  O=C(NC1Cc2ccccc2C1)c1cccc(Nc2ccnc(N3CCN(c4ccccc4)CC3)n2)c1     %                4
2  CN(CCc1ccccn1)C(=O)[C@@H]1CCCN1c1nccc(Nc2ccccc2)n1     %                0

P: O=C(NC[C@@H]1CCCO1)c1cccc(Nc2nccc(Nc3ccc4ncsc4c3)n2)c1
Q: COc1cccc(Nc2cc(Nc3cccc(C(=O)NCCCn4ccnc4)c3)nc(N)n2)c1
Hi there, can you help? I need to know whether P or Q has lower measured inhibition. Identify your selection by its label.
Q

a: COC(=O)C(CO)NC(=O)[C@@H]1CCCN1c1nccc(Oc2cccc(C)c2)n1 (some centres undefined)
b: COC[C@@H]1CCCN1C(=O)[C@@H]1CCCN1c1cc(Nc2cccc(OC)c2)nc(N)n1
Hey, between a and b which has a smaller measured inhibition? // caller expects the label of the chosen entry
a

a: O=C(c1nc(SCc2ccc(Cl)cc2)n2ccccc12)N1CCN(c2ncnc3c2CN(Cc2ccccc2)CC3)CC1
b: COC[C@@H]1CCCN1C(=O)C1CCCN1c1cc(Nc2cccc(Br)c2)ncn1 (some centres undefined)
Lab log: flag the item ( a or b ) with the smaller inhibition figure. // respond with label for picked entry
b

---

Test: Inhibition of AMPKalpha at 10 uM by HTRF assay relative to control
Reported metric: inhibition (%)

a: Cc1cccc(Oc2ccnc(N3CCN(C(=O)c4c(C)noc4C)CC3)n2)c1
b: Cc1cccc(Nc2nccc3c2CN(C(=O)c2cc(C)n(C)c2C)CC3)c1
# compare inhibition for a vs b ; return the one with the smaller value When you have decided, please share the label of that item.
b
(b: 1%, a: 6%)

A: O=C(C1CCN(c2nccc(Nc3ccccc3)n2)CC1)N1CC[C@@H](O)C1
B: Cc1cccc(N(C)c2cc(Nc3cccc(C(=O)N4CCCC5CCCCC54)c3)ncn2)c1 (centres undefined)
In terms of reported inhibition, does A or B have the smaller number? Choose, then provide that item's label.
B
(B: 1%, A: 7%)

P: Cc1cccc(Nc2cc(Nc3cccc(C(=O)N(CC(C)O)CC(C)O)c3)ncn2)c1 (centres undefined)
Q: Cc1cccc(Oc2ccnc(N3CCC[C@H]3C(=O)NCc3cccnc3)n2)c1
Recorded inhibition values differ for P and Q ; which one is higher? # reply format: chosen label
P

---

Target: UniProtKB P06239
Sequence (P06239 2-509 limits assumed): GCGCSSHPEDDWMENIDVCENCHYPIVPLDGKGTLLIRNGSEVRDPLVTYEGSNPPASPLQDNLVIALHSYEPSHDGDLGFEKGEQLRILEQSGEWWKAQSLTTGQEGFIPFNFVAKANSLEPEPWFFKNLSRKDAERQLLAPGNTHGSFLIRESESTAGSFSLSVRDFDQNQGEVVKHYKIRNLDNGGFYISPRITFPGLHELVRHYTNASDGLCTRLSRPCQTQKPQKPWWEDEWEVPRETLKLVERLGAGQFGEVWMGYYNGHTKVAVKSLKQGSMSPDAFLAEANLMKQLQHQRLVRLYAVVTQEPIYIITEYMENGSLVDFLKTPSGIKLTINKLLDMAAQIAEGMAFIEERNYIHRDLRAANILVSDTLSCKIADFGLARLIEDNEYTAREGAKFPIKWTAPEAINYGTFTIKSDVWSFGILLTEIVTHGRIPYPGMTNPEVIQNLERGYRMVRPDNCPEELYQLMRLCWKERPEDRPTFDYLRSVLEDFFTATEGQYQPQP
Assay: Inhibition of Lck at 10 uM by HTRF assay relative to control
Reported metric: inhibition (%)

Here is how some compounds turned out for inhibition.
In [3]: df
Out[3]:
                              line_notation  experimental_system  measured_result
0  O=C(c1nc(SCc2ccc(Cl)cc2)n2ccccc12)N1CCN(c2cc(Nc3cccc(Br)c3)ncn2)CC1     UniProtKB P06239                0
1  Cc1cccc(Nc2nccc3c2CN(C(=O)c2cc(C)n(C)c2C)CC3)c1     UniProtKB P06239                0
2  COc1ccc(NC(=O)Cc2ccc(Nc3cc(N(C)c4cccc(C)c4)ncn3)cc2)cn1     UniProtKB P06239                0
3  COc1cccc(Nc2cc(Nc3cccc(C(=O)NCCCn4ccnc4)c3)nc(N)n2)c1     UniProtKB P06239                0
4  COc1cccc(Nc2cc(N3CCC[C@H]3C(=O)NCCN3CCCCC3)nc(N)n2)c1     UniProtKB P06239                0

A: CN(C)CC(C)(C)CNC(=O)[C@@H]1CCCN1c1nccc(Nc2ccccc2)n1
B: O=C(NCc1cccnc1)c1cccc(-c2ccc(Nc3ccc4ncsc4c3)nn2)c1
C: O=C(COc1ccccc1)N1CCN(c2nccc(Nc3ccc4ncsc4c3)n2)CC1
D: O=C(NCCc1ccc(O)cc1)c1cccc(Nc2nccc(Nc3ccc4ncsc4c3)n2)c1
Arrange the 4 compounds from largest to smallest inhibition. Could you list the labels in the order requested?
B, C, D, A
(B: 42%, C: 22%, D: 1%, A: 0%)
